# study_target: UGT1A10 (Homo sapiens, UniProt Q9HAW8)
# test_description: Ki assays / kinetics and inhibition type, UGT1A10 (Example 1)
# settings: read-out: Kiapp (UDP-GlcUA), UDP-GlcUA varied, 8-OH warfarin
readout_kind: Ki (µM)

[[record]]
compound = "CCCCCCCCCC(=O)NC(COC(=O)NS(=O)(=O)OCC1OC(n2ccc(=O)[nH]c2=O)C(O)C1O)Cc1ccccc1 (stereo not shown) [PP55B]"
readout_kind = "Ki"
observed_value = 26


###

Measured Km by item
# study_target: UniProt:Q9HAW8
# test_description: Ki assays / kinetics and inhibition type, UGT1A10 (Example 1)
# settings: read-out: Km (Substrate), Km of the aglycone substrate
readout_kind: Km (µM)

[[record]]
molecule = "CC(=O)CC(c1ccccc1)c1c(O)c2cccc(O)c2oc1=O (stereo not shown) [8-OH Warfarin, 8-hydroxywarfarin, reference compound]"
readout_kind = "Km"
unit_abbrev = "µM"
observed_value = 510

[[record]]
molecule = "Cc1cc(=O)oc2cc(O)ccc12 [4-MU, 4-methylumbelliferone, reference compound]"
readout_kind = "Km"
unit_abbrev = "µM"
observed_value = 200

[[record]]
molecule = "C[C@]12CC[C@@H]3c4ccc(O)cc4CC[C@H]3[C@@H]1CC[C@@H]2O [E2, reference compound]"
readout_kind = "Km"
unit_abbrev = "µM"
observed_value = 46

[[record]]
molecule = "CC(=O)CC(c1ccccc1)c1c(O)c2ccc(O)cc2oc1=O (stereo not shown) [7-OH Warfarin, 7-hydroxywarfarin, reference compound]"
readout_kind = "Km"
unit_abbrev = "µM"
observed_value = 450


###

We begin with a simple list: items and their reported Km.
# study_target: UniProtKB Q9HAW8
# Sequence (Q9HAW8 26-530): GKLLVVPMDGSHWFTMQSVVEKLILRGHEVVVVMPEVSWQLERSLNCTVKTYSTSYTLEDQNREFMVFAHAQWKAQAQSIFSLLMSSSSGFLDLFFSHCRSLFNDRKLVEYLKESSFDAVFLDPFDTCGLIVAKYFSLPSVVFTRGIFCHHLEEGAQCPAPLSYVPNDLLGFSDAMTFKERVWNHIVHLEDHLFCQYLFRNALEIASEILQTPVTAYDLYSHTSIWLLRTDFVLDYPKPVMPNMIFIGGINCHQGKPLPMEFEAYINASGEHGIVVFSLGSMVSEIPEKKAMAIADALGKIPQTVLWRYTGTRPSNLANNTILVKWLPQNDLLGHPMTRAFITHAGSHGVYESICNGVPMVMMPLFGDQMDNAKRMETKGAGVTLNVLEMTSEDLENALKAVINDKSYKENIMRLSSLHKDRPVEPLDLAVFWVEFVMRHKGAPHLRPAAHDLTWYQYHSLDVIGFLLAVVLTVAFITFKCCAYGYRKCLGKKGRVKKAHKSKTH
# test_description: Ki assays / kinetics and inhibition type, UGT1A10 (Example 2)
# settings: read-out: Km (Substrate); UGT1A10; Km of the aglycone substrate; Example 2
readout_kind: Km (µM)

[[record]]
compound = "CC(=O)CC(c1ccccc1)c1c(O)c2ccc(O)cc2oc1=O (stereo not drawn) [7-OH Warfarin, 7-hydroxywarfarin, reference compound]"
readout_kind = "Km"
observed_value = 497

[[record]]
compound = "CC(=O)CC(c1ccccc1)c1c(O)c2cccc(O)c2oc1=O (stereo not drawn) [8-OH Warfarin, 8-hydroxywarfarin, reference compound]"
readout_kind = "Km"
observed_value = 515

[[record]]
compound = "Cc1cc(=O)oc2cc(O)ccc12 [4-MU, 4-methylumbelliferone, reference compound]"
readout_kind = "Km"
observed_value = 91.1

